Tested on: CAL-12T
Assay: relative viability (nuclei count vs DMSO), 5 days (fraction); higher = more cells survive
Conditions: first compound 1 µM
quantity kind: relative viability
Please state the value as a number alone, without comment.

Query :: Quick one: relative viability of NC(=O)Nc1cc(-c2cccc(F)c2)sc1C(=O)N[C@H]1CCCNC1 [AZD7762] + CC(C)C[C@H](NC(=O)[C@H](Cc1ccccc1)NC(=O)c1cnccn1)B(O)O [Bortezomib] (partner 0.002 µM) ?
Result :: 0.23

Query :: Try the compound NC(=O)Nc1cc(-c2cccc(F)c2)sc1C(=O)N[C@H]1CCCNC1 [AZD7762] + COc1cccc2cc(-c3nc([C@H]4CC[C@H](C(=O)O)CC4)n4ncnc(N)c34)[nH]c12 [OSI-027] (partner 0.5 µM)
Result :: 0.124

Query :: Note, next up: NC(=O)Nc1cc(-c2cccc(F)c2)sc1C(=O)N[C@H]1CCCNC1 [AZD7762] + COc1cc2c(Oc3ccc(NC(=O)C4(C(=O)Nc5ccc(F)cc5)CC4)cc3F)ccnc2cc1OCCCN1CCOCC1 [Foretinib] (partner 0.25 µM)
Result :: 0.217

Query :: And the next one, NC(=O)Nc1cc(-c2cccc(F)c2)sc1C(=O)N[C@H]1CCCNC1 [AZD7762] + O=C(CCCCCCC(=O)Nc1ccccc1)NO [Vorinostat] (partner 1 µM) ?
Result :: 0.167
